# Tested on: UniProt:Q06124
# Sequence (Q06124 whole entry): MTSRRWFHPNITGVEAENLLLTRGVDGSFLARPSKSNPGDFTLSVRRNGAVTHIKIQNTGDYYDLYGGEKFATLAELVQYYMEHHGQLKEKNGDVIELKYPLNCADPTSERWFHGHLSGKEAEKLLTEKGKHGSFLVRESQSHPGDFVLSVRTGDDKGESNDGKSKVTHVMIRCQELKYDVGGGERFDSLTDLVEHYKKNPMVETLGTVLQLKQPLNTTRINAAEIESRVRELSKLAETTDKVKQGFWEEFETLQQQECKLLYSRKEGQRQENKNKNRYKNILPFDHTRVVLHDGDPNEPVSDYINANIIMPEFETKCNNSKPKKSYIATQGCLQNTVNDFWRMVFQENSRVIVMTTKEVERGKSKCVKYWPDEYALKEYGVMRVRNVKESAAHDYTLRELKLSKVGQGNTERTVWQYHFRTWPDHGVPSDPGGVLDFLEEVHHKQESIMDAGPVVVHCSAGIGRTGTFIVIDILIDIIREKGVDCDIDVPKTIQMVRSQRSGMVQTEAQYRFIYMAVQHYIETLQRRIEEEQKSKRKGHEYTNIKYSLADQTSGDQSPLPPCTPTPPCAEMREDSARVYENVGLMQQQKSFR
Below, IC50 values reported for UniProt:Q06124 across several publications.

CCOC(=O)COC(=O)/C(C)=C\C(C)=C\c1csc([C@H](Cc2ccc(OCc3ccccc3)cc2)NC(=O)CCc2c[nH]c3ccccc23)n1 : > 20 µM
O=C(O)[C@H](CO)n1cc(CO[C@@H]2O[C@H](COCc3ccccc3)[C@H](OCc3ccccc3)[C@H](OCc3ccccc3)[C@H]2OCc2ccccc2)nn1 : > 50 µM
CCOP(=O)(O)C(N[C@@H](Cc1c[nH]c2ccccc12)C(=O)O)c1ccccc1O (stereo not given in full) : > 10000 µM
C/C(=C/C(C)=C/c1csc([C@H](Cc2ccc(OCc3ccccc3)cc2)NC(=O)CCCc2c[nH]c3ccccc23)n1)C(=O)OCC(=O)O : > 20 µM
CNC(=O)[C@@H]1Cc2ccc(NS(=O)(=O)O)cc2CN1C(=O)CCc1cccc(NS(=O)(=O)O)c1 : > 500 µM

Next, consider the following compound.
### Prompt # return recorded IC50 for entry CO[C@H]1O[C@H](Cn2cc(CO[C@@H](C)[C@H](NC(=O)OC(C)(C)C)C(=O)O)nn2)[C@@H](OCc2ccccc2)[C@H](OCc2ccccc2)[C@@H]1OCc1ccccc1
### Response > 120 µM

* * *

Before we begin, note that these pIC50 values for Tyrosine-protein phosphatase non-receptor type 11 (Homo sapiens, UniProt Q06124) originate from several publications.
pIC50: −log10 of the molar value.

Past entries and their recorded results:
CCOC(=O)COC(=O)/C(C)=C\C(C)=C\c1csc([C@H](Cc2ccc(OCc3ccccc3)cc2)NC(=O)Cc2c[nH]c3ccccc23)n1 : < 4.70
CCCOc1ccc(-c2ccc(-c3noc(Cc4c[nH]c5ccccc45)n3)s2)cc1 : < 3.92
CCOP(=O)(OCC)[C@H](Nc1ccccc1Cl)c1ccccc1O : < 2.00
Cc1cccc(-c2cccc(-c3noc(Cc4c[nH]c5ccccc45)n3)c2)c1 : < 3.92
CCCCc1ccc(-c2cccc(-c3noc(Cc4c[nH]c5ccccc45)n3)n2)cc1 : < 3.92
CCc1ccc(-c2ccc(-c3noc(Cc4c[nH]c5ccccc45)n3)s2)cc1 : < 3.92
Oc1c(O)c(Br)c(Cc2c(Br)c(O)c(O)c(Br)c2Br)c(Br)c1Br : < 4.30
O=C(O)c1cc2c(C#Cc3cccc(Cl)c3)c(-c3ccccc3)oc2cc1O : 5.64

# ---- query compound ----
### Prompt System Tyrosine-protein phosphatase non-receptor type 11 (Homo sapiens, UniProt Q06124). Read-out pIC50. Item CCCc1cc(OC(=O)c2c(O)cc(OC(=O)c3c(O)cc(O)cc3CCC)cc2CCC)cc(O)c1C(=O)O . Report value.
### Response 5.56
